Test: Toxicokinetics in the 28 day dog study of DIO-902 (with racemic ketoconazole group a)
Conditions: female, beagle, plasma, po, 20 mg/kg, Cmax, dogs, 20 mg/kg oral, day 1, F
experimental-endpoint: Cmax (ng/mL)
Reply numerically in ng/mL, unit not repeated.

Q. Name the recorded Cmax of the molecule listed here: CC(=O)N1CCN(c2ccc(OC[C@@H]3CO[C@@](Cn4ccnc4)(c4ccc(Cl)cc4Cl)O3)cc2)CC1
A. 14700

====

Assay: Toxicokinetics in the 28 day dog study of DIO-902 (with racemic ketoconazole group a)
Conditions: female, beagle, plasma, oral, 20 mg/kg, Drug concentration in plasma, dogs, group a: 20 mg/kg oral (after 40 mg/kg days 1-9, pause), day 28, F, 1 h
experimental-endpoint: concentration at 1 h

Q. // Input: CC(=O)N1CCN(c2ccc(OCC3COC(Cn4ccnc4)(c4ccc(Cl)cc4Cl)O3)cc2)CC1 (racemic) [Racemic ketoconazole] . Output its concentration at 1 h only.
A. < 250 ng/mL

====

Assay: Toxicokinetics in the 28 day dog study of DIO-902 (with racemic ketoconazole group a)
Conditions: female, beagle, plasma, po, 20 mg/kg, Tmax Range, dogs, group a: 20 mg/kg oral (after 40 mg/kg days 1-9, pause), day 28, F
experimental-endpoint: Tmax

Q. Return Tmax (reported value) for this molecule: CC(=O)N1CCN(c2ccc(OCC3COC(Cn4ccnc4)(c4ccc(Cl)cc4Cl)O3)cc2)CC1 (racemic) [Racemic ketoconazole]
A. 2 to 8 h

====

Assay: Toxicokinetics of racemic ketoconazole in another 28-day dog study (b)
Details: female, beagle, dog, plasma, po, 10 mg/kg, Cmax, dogs, study b, powder, 10 mg/kg oral, day 1, F
experimental-endpoint: Cmax (ng/mL)
Please reply with the bare figure in ng/mL and do not write the unit itself.

Q. Quote Cmax reported for CC(=O)N1CCN(c2ccc(OCC3COC(Cn4ccnc4)(c4ccc(Cl)cc4Cl)O3)cc2)CC1 (racemic) [Racemic ketoconazole] please.
A. 1580

====

Assay: Toxicokinetics in the 28 day dog study of DIO-902 (with racemic ketoconazole group a)
Settings: female, beagle, plasma, po, 2 mg/kg, Drug concentration in plasma, dogs, 2 mg/kg oral, day 1, F, 8 h
experimental-endpoint: concentration at 8 h

Q. Return concentration at 8 h for the following compound: CC(=O)N1CCN(c2ccc(OC[C@@H]3CO[C@@](Cn4ccnc4)(c4ccc(Cl)cc4Cl)O3)cc2)CC1
A. < 250 ng/mL

====

Assay: Toxicokinetics of racemic ketoconazole in another 28-day dog study (b)
Settings: male, beagle, dog, plasma, po, 40 mg/kg, Drug concentration in plasma, dogs, study b, powder, 40 mg/kg oral, day 28, M, 8 h
Excerpt: Two groups of three male and three female dogs per group were studied. Toxicokinetic samples were collected on Day 1 and during Weeks 2 and 4. […] For the following Table: *Days of treatment.
experimental-endpoint: concentration at 8 h (ng/mL)
Give your result in ng/mL as a bare value.

Q. State its concentration at 8 h: CC(=O)N1CCN(c2ccc(OCC3COC(Cn4ccnc4)(c4ccc(Cl)cc4Cl)O3)cc2)CC1 (racemic) [Racemic ketoconazole]
A. 46800

====

Assay: Toxicokinetics in the 28 day dog study of DIO-902 (with racemic ketoconazole group a);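 note: beagle dogs dosed orally once daily within a 28-day GLP study, 3 animals per sex per group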
Settings: male, beagle, plasma, oral, 20 mg/kg, Drug concentration in plasma, dogs, group a: 20 mg/kg oral (after 40 mg/kg days 1-9, pause), day 28, M, 4 h
experimental-endpoint: concentration at 4 h

Q. For CC(=O)N1CCN(c2ccc(OCC3COC(Cn4ccnc4)(c4ccc(Cl)cc4Cl)O3)cc2)CC1 (racemic) [Racemic ketoconazole] , write its concentration at 4 h.
A. < 250 ng/mL

Just for reference, patent US11478471B2 is where these values come from.
